meta.source: patent US20240301052A1

Target: T1, Rhesus SLC34A2 (Rhesus, UniProt F7HDA3 1-690)
T1 construct: whole, on cells
T1 sequence: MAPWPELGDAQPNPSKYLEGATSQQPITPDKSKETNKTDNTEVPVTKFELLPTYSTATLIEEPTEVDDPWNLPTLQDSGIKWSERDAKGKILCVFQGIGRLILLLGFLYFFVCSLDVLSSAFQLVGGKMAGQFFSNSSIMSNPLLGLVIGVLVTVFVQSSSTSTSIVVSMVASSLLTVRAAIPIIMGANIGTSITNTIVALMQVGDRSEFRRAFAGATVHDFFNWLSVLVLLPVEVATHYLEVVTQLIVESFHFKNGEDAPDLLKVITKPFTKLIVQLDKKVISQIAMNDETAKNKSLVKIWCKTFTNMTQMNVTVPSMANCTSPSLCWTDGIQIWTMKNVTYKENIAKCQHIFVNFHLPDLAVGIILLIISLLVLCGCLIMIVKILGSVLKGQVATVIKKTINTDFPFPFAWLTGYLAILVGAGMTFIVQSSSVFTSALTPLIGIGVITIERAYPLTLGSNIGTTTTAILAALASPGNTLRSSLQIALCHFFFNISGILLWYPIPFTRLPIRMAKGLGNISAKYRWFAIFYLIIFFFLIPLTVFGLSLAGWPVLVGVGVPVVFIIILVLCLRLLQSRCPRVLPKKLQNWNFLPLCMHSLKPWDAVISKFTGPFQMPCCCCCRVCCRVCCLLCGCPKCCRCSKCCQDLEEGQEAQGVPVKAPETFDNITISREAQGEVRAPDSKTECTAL
Assay: FACS, HEK293/Rhesus SLC34A2 cells
Would you kindly list pEC50 for each of these binders?
One number for each entry, as −log10 of the molar value.

Example results:
1) 30H9B8F9 VH_P1/VL hIgG1 (antibody, V domains shown, PTM-derisked chimeric, hIgG1; that P1 is the N=>S version follows from the humanized .p1 chains; also called 30H9B8F9.p1 hIgG1) VH: QVQLQQPGAELVKPGASVKMSCKTSGYTFTTNNMHWVKQTPGQGLEWIGAIYPGSGATAYNQKFKGKATLTADKSSSTAYMQLSSLTSEASAVYYCARGMYGHGAMDYWGQGTSVIVSS VL: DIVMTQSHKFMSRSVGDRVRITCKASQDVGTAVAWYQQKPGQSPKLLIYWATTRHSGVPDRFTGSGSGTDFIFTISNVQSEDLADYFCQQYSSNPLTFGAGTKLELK	9.10
2) 63A11D5B4 VH_P1/VL hIgG1 (antibody, V domains shown, PTM-derisked chimeric, hIgG1; that P1 is the SG version follows from the humanized .p1 chains; also called 63A11D5B4.p1 hIgG1) VH: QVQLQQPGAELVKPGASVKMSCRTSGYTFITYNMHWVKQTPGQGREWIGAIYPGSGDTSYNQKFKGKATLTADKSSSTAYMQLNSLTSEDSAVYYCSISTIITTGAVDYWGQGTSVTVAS VL: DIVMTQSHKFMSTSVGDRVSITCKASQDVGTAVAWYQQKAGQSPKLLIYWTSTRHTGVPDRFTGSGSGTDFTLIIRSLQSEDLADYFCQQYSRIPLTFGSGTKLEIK	9.15

Next binder, please.
q: Dear colleague, please send me the reported pEC50 for xi30H9B8F9 hIgG1 (antibody, V domains shown, chimeric, hIgG1) VH: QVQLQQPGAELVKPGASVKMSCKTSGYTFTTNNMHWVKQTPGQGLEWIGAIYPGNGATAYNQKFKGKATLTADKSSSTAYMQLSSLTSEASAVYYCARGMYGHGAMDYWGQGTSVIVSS VL: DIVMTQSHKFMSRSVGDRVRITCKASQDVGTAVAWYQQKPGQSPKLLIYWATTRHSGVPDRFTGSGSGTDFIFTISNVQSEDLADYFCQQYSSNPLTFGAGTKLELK when you can.
a: 9.05
